Record set of pIC50 for target or system Hepatocyte growth factor receptor (Homo sapiens, UniProt P08581).
# pIC50 = -log10(concentration in molar units)

Q: Return reported pIC50. Input compound: `C=CC(=O)Nc1cc2c(Oc3ccc(NC(=O)CCCc4ccsc4)cc3F)ncnc2cc1OC`
Result: 6.16

Q: Return reported pIC50. Input compound: `CCC(=O)Nc1cc2c(Oc3ccc(NC(=O)NCCc4ccc(OC)c(OC)c4)cc3F)ncnc2cc1OC`
Result: 7.04

Q: Return reported pIC50. Input compound: `C/C=C/C(=O)Nc1cc2c(Oc3ccc(NC(=O)CCCc4ccc(OC)cc4)cc3F)ncnc2cc1OC`
Result: 6.31
